Target: RIPK1 (recombinant GST-RIPK1 kinase domain, residues 1-327) (Homo sapiens (Human))
Sequence (Q13546 1-327): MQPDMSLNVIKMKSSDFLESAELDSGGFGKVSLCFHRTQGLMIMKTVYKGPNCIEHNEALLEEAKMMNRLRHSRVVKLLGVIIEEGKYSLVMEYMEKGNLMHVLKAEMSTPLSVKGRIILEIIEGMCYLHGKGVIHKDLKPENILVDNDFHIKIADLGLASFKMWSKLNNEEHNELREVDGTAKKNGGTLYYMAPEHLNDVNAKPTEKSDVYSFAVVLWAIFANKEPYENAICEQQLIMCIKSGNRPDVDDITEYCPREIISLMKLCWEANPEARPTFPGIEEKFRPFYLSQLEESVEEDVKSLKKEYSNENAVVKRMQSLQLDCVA
Assay: RIPK1-ADP-Glo Enzymatic Assay
Format: biochemical
Conditions: ADP-Glo; 25 nM GST-RIPK1, 300 μM ATP; assay lower limit ~25 nM; read-out: RIPK1 V0 Ec50
Structures can show the parent of a compound that is named as a salt.
endpoint.name: pEC50
Scale: pEC50 equals -log10([C]), with [C] in mol/L.

These recorded examples may help you get a feel for the data.
O=C1N2[C@@H](CC[C@H]2c2cc(F)cc(F)c2)OC12CCN(c1nccc3nccn13)CC2 [Example 4.82, TFA salt] | 7.60
O=C(c1ccn2nncc2c1)N1CCC2(CC1)O[C@@H]1CC[C@@H](c3cc(F)cc(F)c3)N1C2=O | 7.52
O=C(c1nc2cnccc2s1)N1CCC2(CC1)O[C@@H]1CC[C@@H](c3cc(F)cc(F)c3)N1C2=O | 7.17

According to the records, this compound Cc1cc(C(=O)N2CCC3(CC2)O[C@@H]2CC[C@@H](c4cc(F)cc(F)c4)N2C3=O)ccc1C#N displays pEC50 of 6.86

So for CC(F)c1cc(N2CCC3(CC2)O[C@@H]2CC[C@@H](c4ccccc4)N2C3=O)ncn1 (stereo partly shown) [Example 4.215] , the logged pEC50 turned out to be 6.26
